I'd appreciate it if you could supply pEC50 values for the items below.
# Tested On: hTRPM8 (Homo sapiens, UniProt Q7Z2W7)
# Construct: expressed in transfected cells
# Sequence (Q7Z2W7 whole entry): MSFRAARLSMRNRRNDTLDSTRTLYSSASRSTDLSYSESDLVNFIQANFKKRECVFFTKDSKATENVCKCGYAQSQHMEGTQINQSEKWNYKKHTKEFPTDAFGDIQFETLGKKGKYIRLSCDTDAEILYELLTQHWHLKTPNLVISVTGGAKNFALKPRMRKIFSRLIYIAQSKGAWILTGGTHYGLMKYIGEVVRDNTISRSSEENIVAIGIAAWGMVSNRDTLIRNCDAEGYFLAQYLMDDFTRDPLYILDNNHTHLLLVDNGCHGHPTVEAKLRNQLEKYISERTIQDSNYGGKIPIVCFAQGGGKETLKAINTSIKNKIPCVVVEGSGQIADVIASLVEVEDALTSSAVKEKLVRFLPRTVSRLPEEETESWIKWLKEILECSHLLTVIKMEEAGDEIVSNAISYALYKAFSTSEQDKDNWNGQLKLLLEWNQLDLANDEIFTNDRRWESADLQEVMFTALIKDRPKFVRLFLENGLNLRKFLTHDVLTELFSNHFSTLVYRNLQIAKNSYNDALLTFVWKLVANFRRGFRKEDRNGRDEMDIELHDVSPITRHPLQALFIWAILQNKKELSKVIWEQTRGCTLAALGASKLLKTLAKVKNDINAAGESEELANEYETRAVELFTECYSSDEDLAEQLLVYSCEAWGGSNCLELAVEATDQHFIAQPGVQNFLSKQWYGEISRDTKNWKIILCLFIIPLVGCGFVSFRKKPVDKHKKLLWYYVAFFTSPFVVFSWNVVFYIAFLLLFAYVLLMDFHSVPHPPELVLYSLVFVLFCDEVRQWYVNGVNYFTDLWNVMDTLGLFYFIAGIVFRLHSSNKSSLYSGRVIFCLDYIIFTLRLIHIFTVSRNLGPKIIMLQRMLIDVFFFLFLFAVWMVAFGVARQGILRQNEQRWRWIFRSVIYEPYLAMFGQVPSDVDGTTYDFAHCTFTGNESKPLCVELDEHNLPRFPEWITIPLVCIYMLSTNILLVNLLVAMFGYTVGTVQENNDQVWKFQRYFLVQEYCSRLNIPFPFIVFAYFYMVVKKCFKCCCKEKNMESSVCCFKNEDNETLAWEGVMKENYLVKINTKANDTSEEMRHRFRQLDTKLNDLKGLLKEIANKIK
# Assay Comment: Cell line stably expressing hTRPM8, agonist assay, compounds of Formula (I)
# Format: cell-based
# Conditions: Table 1.7
# Source text: A mammalian cell line derivative which stably expresses hTRPM8 was used in biological assays in association with testing the present compounds with cool-tasting or -feeling properties (Servant et al. US 2007/0259354 A1 and references cited therein). […] The present compounds have shown strong activity as agonists of hTRPM8. Assay results for compounds are illustrated in Table 1.1 below. […]
# pEC50: negative log10 of molar concentration; output just the value

Exam item: For the compound Cc1ccc(OCC(=O)N(Cc2ccccc2)c2ccccn2)cc1 [drawing 56 R=4-Me R1=2-Pyridyl Ar=Phenyl] , give its reported pEC50.
Marked response: 5.33

Exam item: For the compound CCN(Cc1ccccc1)C(=O)COc1ccccc1 [drawing 56 R=H R1=Ethyl Ar=Phenyl] , give its reported pEC50.
Marked response: 5.04

Exam item: For the compound CCN(Cc1ccccc1)C(=O)COc1ccc(C)cc1 [drawing 56 R=4-Me R1=Ethyl Ar=Phenyl] , give its reported pEC50.
Marked response: 6.11

Exam item: For the compound O=C(COc1ccc(Br)cc1)N(Cc1ccccc1)c1ccccn1 [drawing 56 R=4-Br R1=2-Pyridyl Ar=Phenyl] , give its reported pEC50.
Marked response: 4.81

These entries and their values trace back to patent US20160339026A1.
